Experiment: Transmission electron microscope (negative staining) of peptide assemblies
Conditions: TEM, negative staining with uranyl acetate, 120 kV; line of the table gives 60 mM
Where a SMILES comes first, the peptide text is derived from it.
measure: Morphology

Use the examples below as a reference point.
CC[C@H](C)[C@H](N)C(=O)N[C@@H](CCC(N)=O)C(=O)N[C@H](C(=O)N[C@H](C(=O)O)[C@@H](C)CC)[C@@H](C)CC [IQII] (H-IQII-OH); hybrid(sphere+fibre)
C[C@H](NC(=O)[C@@H](N)CO)C(=O)N[C@@H](Cc1c[nH]c2ccccc12)C(=O)N[C@@H](Cc1ccccc1)C(=O)O [SAWF] (H-SAWF-OH); fibre
C[C@H](NC(=O)[C@@H](N)Cc1ccc(O)cc1)C(=O)N[C@@H](Cc1c[nH]c2ccccc12)C(=O)N[C@@H](Cc1ccccc1)C(=O)O [YAWF] (H-YAWF-OH); fibre
CC(C)C[C@H](N)C(=O)N[C@@H](CO)C(=O)N[C@@H](Cc1ccccc1)C(=O)N[C@@H](Cc1c[nH]c2ccccc12)C(=O)O [LSFW] (H-LSFW-OH); hybrid(sphere+fibre)
CC(C)C[C@H](NC(=O)[C@H](CO)NC(=O)[C@H](CC(C)C)NC(=O)[C@@H](N)CC(C)C)C(=O)O [LLSL] (H-LLSL-OH); sheet

Input: Identify Morphology associated with the compound CC[C@H](C)[C@H](N)C(=O)N[C@@H](Cc1ccccc1)C(=O)N[C@@H](Cc1ccc(O)cc1)C(=O)N[C@H](C(=O)O)[C@@H](C)O [IFYT] (H-IFYT-OH)
Output: sheet

Input: Identify Morphology associated with the compound CC(C)C[C@H](N)C(=O)N[C@H](C(=O)N[C@@H](Cc1ccccc1)C(=O)NCC(=O)O)C(C)C [LVFG] (H-LVFG-OH)
Output: aggregates

Input: Identify Morphology associated with the compound CSCC[C@H](N)C(=O)N[C@H](C(=O)N[C@@H](Cc1ccccc1)C(=O)N1CCC[C@H]1C(=O)O)C(C)C [MVFP] (H-MVFP-OH)
Output: fibre

Input: Identify Morphology associated with the compound CC[C@H](C)[C@H](NC(=O)[C@@H](N)CS)C(=O)N[C@@H](Cc1ccc(O)cc1)C(=O)N[C@@H](Cc1ccccc1)C(=O)O [CIYF] (H-CIYF-OH)
Output: fibre

Input: Identify Morphology associated with the compound CSCC[C@H](NC(=O)[C@@H]1CCCN1)C(=O)N[C@@H](Cc1ccccc1)C(=O)N[C@@H](Cc1ccc(O)cc1)C(=O)O [PMFY] (H-PMFY-OH)
Output: sheet

Input: Identify Morphology associated with the compound C[C@H](NC(=O)[C@@H](N)Cc1c[nH]c2ccccc12)C(=O)N[C@@H](Cc1ccccc1)C(=O)N[C@@H](Cc1ccc(O)cc1)C(=O)O [WAFY] (H-WAFY-OH)
Output: fibre

Input: Identify Morphology associated with the compound CC(C)[C@H](NC(=O)[C@H](Cc1ccc(O)cc1)NC(=O)[C@H](CO)NC(=O)[C@@H](N)Cc1ccccc1)C(=O)O [FSYV] (H-FSYV-OH)
Output: aggregates

---

Experiment: Transmission electron microscope (negative staining) of peptide assemblies
Settings: TEM, negative staining with uranyl acetate, 120 kV; line of the table gives 90 mM
Where a SMILES comes first, the peptide text is derived from it.
measure: Morphology

CC(C)C[C@H](NC(=O)[C@@H](N)Cc1c[nH]c2ccccc12)C(=O)N[C@H](C(=O)N[C@@H](Cc1c[nH]c2ccccc12)C(=O)O)C(C)C [WLVW] (H-WLVW-OH); fibre
CSCC[C@H](NC(=O)[C@@H](N)CCSC)C(=O)N[C@@H](CC(C)C)C(=O)N[C@@H](CC(C)C)C(=O)O [MMLL] (H-MMLL-OH); sheet
CC(C)C[C@H](NC(=O)[C@H](CC(C)C)NC(=O)[C@@H](N)Cc1c[nH]cn1)C(=O)N[C@@H](Cc1ccccc1)C(=O)O [HLLF] (H-HLLF-OH); sheet
CC[C@H](C)[C@H](NC(=O)[C@@H](NC(=O)[C@@H](NC(=O)[C@@H]1CCCN1)C(C)C)[C@@H](C)CC)C(=O)O [PVII] (H-PVII-OH); fibre
